Where these numbers come from: patent US20230374114A1

target-entity: D614G Spike (SARS-CoV-2, UniProt P0DTC2 16-1213)
Please go through the items and note down their Kd.
Numbers only, in pM.

Record excerpt, results attached:
{"binder": "Ab_18 (scFv, V domains shown) VH: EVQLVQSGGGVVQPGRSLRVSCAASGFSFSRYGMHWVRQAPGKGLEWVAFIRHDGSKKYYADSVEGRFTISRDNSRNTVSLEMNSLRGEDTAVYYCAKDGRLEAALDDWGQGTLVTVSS VL: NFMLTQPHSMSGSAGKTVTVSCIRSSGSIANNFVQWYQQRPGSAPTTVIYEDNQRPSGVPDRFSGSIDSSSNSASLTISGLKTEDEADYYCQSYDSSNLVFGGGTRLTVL", "Kd [pM]": 6.33}
{"binder": "Ab 25 (scFv, V domains shown) VH: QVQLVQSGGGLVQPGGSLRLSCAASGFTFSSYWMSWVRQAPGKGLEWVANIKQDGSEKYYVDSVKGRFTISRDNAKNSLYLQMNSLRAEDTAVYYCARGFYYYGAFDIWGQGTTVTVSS VL: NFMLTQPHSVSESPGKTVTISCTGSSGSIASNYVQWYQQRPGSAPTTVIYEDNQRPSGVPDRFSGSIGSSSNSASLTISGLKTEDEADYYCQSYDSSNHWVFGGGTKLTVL", "Kd [pM]": 8.56}

# context switch: different binder, same Kd
State, in one line, measured Kd of S1-RBD-R3-T1-C7 Ab (Ab 29) (scFv, V domains shown) VH: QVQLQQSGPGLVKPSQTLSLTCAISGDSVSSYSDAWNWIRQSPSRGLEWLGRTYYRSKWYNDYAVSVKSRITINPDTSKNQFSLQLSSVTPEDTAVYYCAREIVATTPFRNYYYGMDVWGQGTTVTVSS VL: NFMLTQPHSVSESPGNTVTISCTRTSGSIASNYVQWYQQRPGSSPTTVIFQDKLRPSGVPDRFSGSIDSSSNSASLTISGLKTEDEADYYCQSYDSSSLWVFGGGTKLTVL
1.04
